System: SF-539 CNS
Experimental details: NCI-60 one-dose screen, 48 h
Applied conditions: 10 µM unless noted
This is part of a sample that, as a whole, favours compounds with a hit. Of some 83,000 tested, about 20% had one in any assay. Calls of active or inactive are those of the source. Rule for the calls: active = growth percent below 10; inactive = the rest.
Select the correct class. Options are active, inactive and nothing else.

Cc1ccc(-c2nc([P+](c3ccccc3)(c3ccccc3)c3ccccc3)c(N3C[C@H]4C[C@H](C3)c3cccc(=O)n3C4)o2)cc1 :: inactive
NC1=NN(c2ccccc2)C(=O)/C1=C/c1ccc(Cl)cc1 :: inactive
O=S(=O)(NCCNc1cc(-c2cn(-c3ccccc3)nc2-c2cccc(O)c2)ccn1)c1ccc(C(F)(F)F)cc1 :: inactive
CCN1CCN(c2nc(C)cc(N(CCCNc3ccnc4cc(Cl)ccc34)Cc3ccco3)n2)CC1 :: active
COc1ccc2c(c1)c(-c1nc(-c3cn(C)c4ncccc34)cs1)cn2CCN :: inactive
O=c1c2sc3ncc(Br)cc3c2ncn1-c1cccc(Cl)c1 :: inactive

Recorded test outcome, item CC1(C)c2ccccc2C(=O)C1(Br)Cc1ccccc1 (configuration not stated)
inactive

Recorded test outcome, item CC(=O)N1N=C(c2ccc(C)cc2)CC1c1ccc(Oc2ccc(Br)cc2)cc1 (configuration not stated)
inactive

Recorded test outcome, item O=C(CCCCCn1c2ccccc2c2c3c(c4c5ccccc5[nH]c4c21)C(=O)N(O)C3=O)N1CCOCC1
inactive

Recorded test outcome, item COc1ccc(/C=C/C(=O)c2ccc([N+](=O)[O-])cc2)cc1
inactive

Recorded test outcome, item COC(=O)[C@]12CC[C@@H](C(/C=C/c3cccnc3)=N/O)[C@@H]1[C@H]1CC[C@@H]3[C@@]4(C)CC(=C/c5cccnc5)/C(=N/O)C(C)(C)[C@@H]4CC[C@@]3(C)[C@]1(C)CC2
inactive
